tested on: SEM cells; assay: cell viability relative to DMSO control; higher = less cytotoxic; conditions: RPMI 5 mM glucose + 10% dialyzed FBS; 48 h; 5.12 µM
Below, each entry is listed alongside its reported cell viability.
RECORDED_ENDPOINT: cell viability (%)

CCCC(C)(COC(N)=O)COC(=O)NC(C)C (stereo not given)    139
C[C@]12Cc3cn[nH]c3C[C@@H]1CC[C@@H]1[C@@H]2CC[C@@]2(C)[C@H]1CC[C@]2(C)O    111
COc1cccc2c1C(=O)c1c(O)c3c(c(O)c1C2=O)C[C@@](O)(C(=O)CO)C[C@@H]3O[C@H]1C[C@H](N)[C@H](O[C@H]2CCCCO2)[C@H](C)O1    18.3
N#Cc1ccc(Oc2ccc3c(c2)COB3O)cc1    97.3
CC(C)=CCC/C(C)=C/CC/C(C)=C/CC/C(C)=C/CC/C(C)=C/CC/C(C)=C/CC/C(C)=C/CC/C(C)=C/CC/C(C)=C/CO    78.4

* * *

system: P12-Ichikawa; experiment: cell viability relative to DMSO control; higher = less cytotoxic; conditions: RPMI 5 mM glucose + 10% FBS; 48 h; 0.00234 µM
Below, each entry is listed alongside its reported cell viability.
RECORDED_ENDPOINT: cell viability (%)

CN(C)C1=CC(=CC=C1)C\2=C\3C(=O)N(NC3=C/C(=O)N2C)C4=CC=CC=C4Cl    122
O=C(CCCCCCC(=O)Nc1cccnc1)NO    95.6
c1ccc2c(Cc3c[nH]c4ccccc34)c[nH]c2c1    93.3
CCc1cc2c(cc1N1CCC(N3CCOCC3)CC1)C(C)(C)c1[nH]c3cc(C#N)ccc3c1C2=O    73.3
NC(=O)Nc1sc(-c2ccc(F)cc2)cc1C(N)=O    114
C[C@H]1C[C@H]2[C@@H]3CC[C@](O)(C(=O)CO)[C@@]3(C)C[C@H](O)[C@@H]2[C@@]\4(C)/C=C\C(=O)\C=C14    96.3
OC[C@H]1O[C@H](C[C@@H]1O)N2\C=C(F)/C(=O)NC2=O    104
COc1ccc(C(CN(C)C)C2(O)CCCCC2)cc1 (stereo not drawn)    115

* * *

test system: SEM cells; assay: cell viability relative to DMSO control; higher = less cytotoxic; conditions: RPMI 5 mM glucose + 10% dialyzed FBS; 48 h; 1.71 µM
RECORDED_ENDPOINT: cell viability (%)

CC(C)=CCC/C(C)=C/CC/C(C)=C/CSc1ccccc1C(=O)O    71.2
C[C@@H]1CN(Cc2ccc(F)cc2)[C@@H](C)CN1C(=O)c1cc2c(C(=O)C(=O)N(C)C)cn(C)c2cc1Cl    109
Cc1cn([C@H]2C=C[C@@H](CO)O2)c(=O)[nH]c1=O    125
O=C1CCC[C@@H]2[C@H]3CCCN4CCC[C@@H](CN12)[C@@H]34    72.3
COc1cc([C@@H]2c3cc4c(cc3[C@H](O)[C@H]3COC(=O)[C@@H]23)OCO4)cc(OC)c1OC    16.8
CCCC(C)(COC(N)=O)COC(=O)NC(C)C (stereo unspecified)    143
CCc1cc(C(N)=S)ccn1    94.5
CC(C)(S)[C@@H](N)C(=O)O    107
Cc1cc(O)c2c(c1)C(=O)c1cccc(O)c1C2=O    110
O=C(CCCCCCC(=O)Nc1cccnc1)NO    81.9
COc1ccc(C(=O)c2c(C)n(CCN3CCOCC3)c3ccccc23)cc1    83.8

* * *

system: P12-Ichikawa; test: cell viability relative to DMSO control; higher = less cytotoxic; conditions: RPMI 5 mM glucose + 10% dialyzed FBS; 48 h; 0.00234 µM
Below, each entry is listed alongside its reported cell viability.
RECORDED_ENDPOINT: cell viability (%)

O=C(Nc1c[nH]nc1-c1nc2cc(CN3CCOCC3)ccc2[nH]1)NC1CC1    98.6
Cc1ccc(C(=O)Nc2cccc(C(F)(F)F)c2)cc1-c1ccc2nc(NCCN3CCOCC3)ncc2c1    107
CCc1cc(C(N)=S)ccn1    124
CCN1\C=C(\C(O)=O)C(=O)C2=C1N=C(N3CCNCC3)C(=C2)F    82.6
CC[C@@H]1[C@@H](C)O[C@@](O)([C@@H](C)[C@H](O)[C@H](C)[C@H]2OC(=O)/C=C/C=C/[C@H](C)[C@@H]([C@@H](C)[C@@H](O)[C@H](C)[C@@]3(O)C[C@@H](O[C@H]4C[C@H](O)[C@H](O)[C@H](C)O4)[C@H](CC)[C@@H](C)O3)OC(=O)/C=C/C=C/[C@@H]2C)C[C@H]1O[C@H]1C[C@H](O)[C@H](O)[C@H](C)O1    121
CC1(CN2CCC(n3c(=O)[nH]c4ccccc43)CC2)OCc2ccccc2-n2cccc21 (stereo not given)    92.5
C=C1C(=O)OC(CCCCCCCC)C1C(=O)O (stereo not given)    116
NC(=O)[C@H]1CCS[C@@H]2C[C@]3(CCCN3C(=O)Cc3ccc(NC(=O)COc4ccc(Cl)cc4Cl)cc3)C(=O)N12    120
CCn1c(-c2nonc2N)nc2c(C#CC(C)(C)O)ncc(OC[C@H]3CCCNC3)c21    87.4
O=S(=O)([O-])CCS.[Na+]    121
C[C@]12Cc3cn[nH]c3C[C@@H]1CC[C@@H]1[C@@H]2CC[C@@]2(C)[C@H]1CC[C@]2(C)O    112
CC[N+](CC)(CC)CCOc1cccc(OCC[N+](CC)(CC)CC)c1OCC[N+](CC)(CC)CC    101
CC(NC(C)(C)C)C(=O)c1cccc(Cl)c1 (stereo not given)    127
O=C(O)CCCCC(CCSCc1ccccc1)SCc1ccccc1 (stereo not given)    116
CC[C@]12CC[C@H]3[C@@H](CCC/4=C/C(=O)CC[C@H]34)[C@@H]1CC[C@@]2(O)C#C    79.5
O=C1\C=C/C=C2/[C@H]3CNC[C@H](C3)CN12    109
CC(C)=CCC/C(C)=C/CC/C(C)=C/CC/C(C)=C/CC/C(C)=C/CC/C(C)=C/CC/C(C)=C/CC/C(C)=C/CC/C(C)=C/CO    100
CC\12CCC(=O)\C=C1CCC3C2CCC4(C)C3CCC4(O)C#C (stereo not given)    85.6
Cc1cc(OCCC[S+](C)(=O)[O-])cc(C)c1-c1cccc(COc2ccc3c(c2)OC[C@H]3CC(=O)O)c1    96.2
N#C/C(=C\c1ccc(O)c(O)c1)C(=O)NCc1ccccc1    96.1
CC(=O)N[C@@H]1[C@@H](NC(N)=N)\C=C(/O[C@H]1[C@H](O)[C@H](O)CO)C(O)=O    107
CN1CCN(c2c(F)cc3c(=O)c(C(=O)O)cn(CCF)c3c2F)CC1    104
CCOC(=O)C(C#N)C\1C2=CC(=CC=C2O\C(=C1C(=O)OCC)N)Br (stereo not given)    99.1
Cc1ccccc1C(OCCN(C)C)c1ccccc1 (stereo not given)    126
CCN(CCO)CCCOc1ccc2c(Nc3cc(CC(=O)Nc4cccc(F)c4)[nH]n3)ncnc2c1    112
O=C(CC12CC3CC(CC(C3)C1)C2)Nc1cccc2nc(NCCNCCO)ccc12    86.6
CCc1cc2c(cc1N1CCC(N3CCOCC3)CC1)C(C)(C)c1[nH]c3cc(C#N)ccc3c1C2=O    81.9
COc1cc([C@@H]2c3cc4c(cc3[C@H](O)[C@H]3COC(=O)[C@@H]23)OCO4)cc(OC)c1OC    95.1
COc1cc(Nc2c(C#N)cnc3cc(OCCCN4CCN(C)CC4)c(OC)cc23)c(Cl)cc1Cl    110
C[C@H](CCC(=O)O)[C@H]1CCC2C3C[C@H](O)[C@@H]4C[C@H](O)CC[C@]4(C)C3CC[C@@]21C (stereo not given in full)    108

* * *

system: P12-Ichikawa; assay: cell viability relative to DMSO control; higher = less cytotoxic; conditions: HPLM + 10% dialyzed FBS; 48 h; 0.0211 µM
RECORDED_ENDPOINT: cell viability (%)

CCN1\C=C(\C(O)=O)C(=O)C2=C1N=C(N3CCNCC3)C(=C2)F    94.9
CC(C)(F)C[C@H](N[C@@H](c1ccc(-c2ccc([S+](C)(=O)[O-])cc2)cc1)C(F)(F)F)C(=O)NC1(C#N)CC1    112
CN(C)C1=CC(=CC=C1)C\2=C\3C(=O)N(NC3=C/C(=O)N2C)C4=CC=CC=C4Cl    111
CC[N+](CC)(CC)CCOc1cccc(OCC[N+](CC)(CC)CC)c1OCC[N+](CC)(CC)CC    107
COC(=O)Nc1nc2cc(C(=O)c3ccc(F)cc3)ccc2[nH]1    106

The measurements presented in this section are drawn from the supplement of paper PMC11451515.
